Origin of measurements: ChEMBL document CHEMBL1201862

tested on: UACC-257; assay: NCI tumour cell line growth inhibition, 48 h
Activity calls are given as the source filed them. No stated cut-off is given here; in the data, active = GI50 up to about 1.1 µM and inactive = higher.
Assign a class; possible classes are active, inactive

Example results:
>  <MOLECULE>
C/N=C(\N=c1/ss/c(=N\C)n1C)N(C)C.[O-][Cl+3]([O-])([O-])O

>  <TARGET_OR_SYSTEM>
UACC-257

>  <CAT>
inactive

$$$$
>  <MOLECULE>
O=CC12c3ccccc3C(c3ccccc31)C1C(=O)NC(=O)C12 (centres undefined)

>  <TARGET_OR_SYSTEM>
UACC-257

>  <CAT>
inactive

$$$$
>  <MOLECULE>
Cc1c2ccncc2c(C)c2c1sc1ccccc12

>  <TARGET_OR_SYSTEM>
UACC-257

>  <CAT>
inactive

$$$$

Moving on to another molecule below.
Hi, do you know how CO[C@@H]1C[C@H](OC(N)=O)[C@@H]2C=C[C@@H]3/C=C(C)/C=C/[C@@H](C)[C@H]([C@H](C)[C@H](O)[C@@H](C)NC(C)=O)OC(=O)/C=C/C=C(C)\C=C\[C@]3(C)[C@@H]2C1 came out in this test?
active

###

test system: SR; test: NCI tumour cell line growth inhibition, 48 h
The source made the active and inactive calls. Rule as the data show it: active = GI50 up to about 1.1 µM and inactive = higher.
# GI50 per record follows

The examples below pair each entry with its known result.
>  <COMPOUND>
CCOC(=O)C1=C(C)CC2C(=O)OC(=O)C2C1(C)C (stereo unspecified)

>  <GI50>
> 100 µM (inactive)

$$$$
>  <COMPOUND>
O=C1/C(=C/c2cccnc2)SC(=S)N1Cc1ccco1

>  <GI50>
1.44 µM (inactive)

$$$$
>  <COMPOUND>
CSc1nc(Cl)c(Br)c(Sc2nc(N)nc3nc[nH]c23)n1

>  <GI50>
3.48 µM (inactive)

$$$$
>  <COMPOUND>
CC[C@@H]1OC2(C)CC(S(=O)(=O)c3ccccc3O)CC1O2 (stereo partly specified)

>  <GI50>
> 100 µM (inactive)

$$$$
>  <COMPOUND>
CCN(CC)CCNC(=O)c1nn(-c2ccc(Cl)cc2)c2c1CCc1cc(OC)ccc1-2

>  <GI50>
4.28 µM (inactive)

$$$$

Param item = Cc1c(C(=O)O)c2cc3ccccc3cc2c(=O)n1C ; retrieve measured GI50.
> 10 µM (inactive)

###

tested on: EKVX; experiment: NCI tumour cell line growth inhibition, 48 h
Activity calls are given as the source filed them. Rule as the data show it: active = GI50 up to about 1.1 µM and inactive = higher.
Measured GI50 by item

>  <COMPOUND>
CCOC(=O)C1CC(=O)C=C2CCCCC21 (stereo unspecified)

>  <GI50>
> 100 µM (inactive)

$$$$
>  <COMPOUND>
COc1cc(OC)c(OC)cc1/C=C/c1ccccn1

>  <GI50>
> 10 µM (inactive)

$$$$
>  <COMPOUND>
N#C/C(=C/n1c(=S)[nH]c2ccc([N+](=O)[O-])cc21)C(N)=O

>  <GI50>
22.2 µM (inactive)

$$$$
>  <COMPOUND>
O=C(O)C(Cc1ccccc1)N1C(=O)c2ccccc2C1=O (stereo unspecified)

>  <GI50>
93.1 µM (inactive)

$$$$
>  <COMPOUND>
O=C1O/C(=C\c2ccc(O)c(Br)c2)C(c2ccc(O)cc2)=C1Cl

>  <GI50>
32.6 µM (inactive)

$$$$
>  <COMPOUND>
Nc1ncnc2c1ncn2C1CC(O)C(CO)O1 (stereo unspecified)

>  <GI50>
> 100 µM (inactive)

$$$$

Hello, I am looking for reported GI50 with EKVX for COC(=O)C(C(=O)C(=O)Nc1nnc(S)[nH]1)c1csc(-n2nc(-c3ccccc3)cc2-c2ccccc2)n1 (stereo unspecified) . Could you help?
33.3 µM (inactive)

Provide value of GI50 for this record tested with EKVX: O=C(/C=C/c1ccccc1Cl)c1ccc(Cl)c(Cl)c1
14.5 µM (inactive)

Lab request: please report GI50 under test system EKVX for COC(=O)C1Cc2c([nH]c3ccccc23)C(C2CCCCC2)N1 (stereo unspecified)
> 100 µM (inactive)

# get_value(readout= GI50, system= EKVX) for Cc1ccc(S(=O)(=O)N2C[C@](O)(c3ccccc3)[C@H]2C)cc1
> 100 µM (inactive)

Lab note: need GI50 with EKVX for entry COc1ccc2c(c1)Oc1cc(O)ccc1[C@H]2c1ccccc1C(=O)NC(C)c1ccccc1 (stereo partly specified) , please look it up.
16.5 µM (inactive)
